Hey, just so you know, these numbers are from patent US20040214721A1.

I'd appreciate it if you could supply melting point values for the items below.

Entry under review: CCC#CCOc1ccc([C@@H]2CCCC[C@H]2NC(=O)[C@@H](NS(=O)(=O)CC)C(C)C)cc1OC . Reported melting point?
133 to 136 °C

Entry under review: CCC#CCOc1ccc([C@@H]2CCCC[C@H]2NC(=O)[C@@H](NS(=O)(=O)N(C)C)C(C)C)cc1OC . Reported melting point?
158 to 160 °C

Entry under review: C#CCOc1ccc([C@@H]2CCCC[C@H]2NC(=O)[C@@H](NS(C)(=O)=O)C(C)C)cc1OC . Reported melting point?
183 to 185 °C

Entry under review: COc1ccc(-c2ccccc2NC(=O)[C@@H](NS(C)(=O)=O)C(C)C)cc1OC . Reported melting point?
68 to 70 °C

Entry under review: COc1ccc(-c2ccccc2NC(=O)CNS(C)(=O)=O)cc1OC . Reported melting point?
158 to 160 °C

Entry under review: CCC#CCOc1ccc([C@@H]2CCCC[C@H]2NC(=O)[C@@H](NS(C)(=O)=O)C(C)C)cc1OC . Reported melting point?
166 to 168 °C

Entry under review: CCOc1ccc(-c2ccccc2NC(=O)[C@@H](NS(C)(=O)=O)C(C)C)cc1OC . Reported melting point?
95 to 98 °C

Entry under review: C#CCOc1ccc([C@@H]2CCCC[C@H]2NC(=O)[C@@H](NS(=O)(=O)CC)C(C)C)cc1OC . Reported melting point?
149 to 151 °C
